- TARGET_OR_TEST_SYSTEM: Hypoxia-inducible factor 1-alpha (Homo sapiens) (UniProt Q16665)
- Sequence (Q16665 whole entry, looked up): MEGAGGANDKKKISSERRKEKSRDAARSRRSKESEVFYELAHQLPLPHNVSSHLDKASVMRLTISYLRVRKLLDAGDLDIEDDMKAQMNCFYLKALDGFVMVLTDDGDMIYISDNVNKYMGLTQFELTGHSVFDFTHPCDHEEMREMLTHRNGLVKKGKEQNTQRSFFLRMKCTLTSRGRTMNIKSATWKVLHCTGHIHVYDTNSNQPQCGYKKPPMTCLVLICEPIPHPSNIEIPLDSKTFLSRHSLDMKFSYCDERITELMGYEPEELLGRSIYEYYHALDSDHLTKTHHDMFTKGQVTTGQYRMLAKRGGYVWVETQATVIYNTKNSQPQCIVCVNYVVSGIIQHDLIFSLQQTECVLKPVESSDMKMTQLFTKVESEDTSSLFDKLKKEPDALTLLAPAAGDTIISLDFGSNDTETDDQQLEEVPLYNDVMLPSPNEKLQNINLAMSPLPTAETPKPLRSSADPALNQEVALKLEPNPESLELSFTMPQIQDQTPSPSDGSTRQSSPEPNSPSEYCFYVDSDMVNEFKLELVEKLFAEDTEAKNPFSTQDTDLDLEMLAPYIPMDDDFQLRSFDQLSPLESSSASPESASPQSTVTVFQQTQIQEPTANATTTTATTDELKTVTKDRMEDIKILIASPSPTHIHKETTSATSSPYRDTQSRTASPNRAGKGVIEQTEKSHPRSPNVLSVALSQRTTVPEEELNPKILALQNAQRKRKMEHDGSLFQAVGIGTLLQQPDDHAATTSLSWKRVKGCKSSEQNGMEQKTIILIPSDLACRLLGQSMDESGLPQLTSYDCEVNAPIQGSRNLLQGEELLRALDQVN
- PROCEDURE_SUMMARY: HIF-2a and HIF-1a reporter inhibition panel, dose response, selectivity assay for HIF-2a inhibitor project, cell-based, luminescence (AID 651581)
- CONDITION_CONTEXT: HIF-1a, run 1
Returns: string. Value is Yes if measured IC50 is below 40 µM, and No if it is greater than or equal to it.

[[record]]
compound = "CCOC(=O)Cc1csc(NC(=S)NC(=O)c2ccccc2C)n1"
target_or_test_system = "Hypoxia-inducible factor 1-alpha (Homo sapiens) (UniProt Q16665)"
label = "Yes"

[[record]]
compound = "Cc1nc2cc(-c3cccc(F)c3)nn2c(C)c1CCC(=O)N1CCC2(CC1)OCCO2"
target_or_test_system = "Hypoxia-inducible factor 1-alpha (Homo sapiens) (UniProt Q16665)"
label = "No"

[[record]]
compound = "Cc1nc2cc(-c3ccccc3)nn2c(C)c1CCC(=O)NC(C)c1ccc2c(c1)OCCO2 (stereo unspecified)"
target_or_test_system = "Hypoxia-inducible factor 1-alpha (Homo sapiens) (UniProt Q16665)"
label = "Yes"

[[record]]
compound = "COc1ccc(/C=C2\\SC(=O)N(CCNC(=O)Cn3[nH]c(=O)c4ccccc4c3=O)C2=O)cc1"
target_or_test_system = "Hypoxia-inducible factor 1-alpha (Homo sapiens) (UniProt Q16665)"
label = "Yes"

[[record]]
compound = "Cc1cc(NC(=O)c2ccccc2)c(Cl)cc1N"
target_or_test_system = "Hypoxia-inducible factor 1-alpha (Homo sapiens) (UniProt Q16665)"
label = "Yes"


Inquiry: Does the reported IC50 of the following compound sit strictly below 40 µM? CCOc1ccc2nc(SCc3ccc(CC(=O)O)cc3)c(C#N)cc2c1
Reply text: Yes

Inquiry: And the next one, CCCCOC(=O)c1ccc(NC(=S)NC(=O)c2c(Br)c(C)nn2C)cc1 ?
Reply text: No

Inquiry: Also O=C(O)c1cccc(NC(=S)NC(=O)c2ccc3ccccc3c2)c1 , if possible.
Reply text: No

Inquiry: Do the same for Cc1cc(C(=O)Nc2cccc(C(=O)O)c2)oc1C please
Reply text: No

Inquiry: // repeat for CCOC(=O)c1cccc(NC(=O)Nc2ccc(OCC)cc2)c1 and report
Reply text: No

Inquiry: Cc1cc(C)cc(C(=O)NC(=S)Nc2ccc(-c3cc4ccccc4oc3=O)cc2)c1 ?
Reply text: No
